- systemName: T1, human VEGF-A residues 27-191 of Accession #AAV38412 (human, UniProt P15692 27-191)
- T1 construct: range 27-191
- T1 sequence (P15692 other isoform, or with tags, fused parts or gaps limits assumed): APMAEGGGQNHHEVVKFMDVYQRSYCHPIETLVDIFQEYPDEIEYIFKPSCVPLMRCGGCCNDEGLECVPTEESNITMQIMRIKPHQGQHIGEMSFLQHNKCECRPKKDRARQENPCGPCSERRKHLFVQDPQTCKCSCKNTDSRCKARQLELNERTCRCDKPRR
- methodSummary: BIAcore SPR, KD WT/KD mutant
experimentalReadout: affinity improvement (fold)
# value in fold; strip the unit string

Prompt: Give the measured affinity improvement of H97 F (anti-VEGF IgG) (antibody, V domains shown, copies: 2 + 2) VH: EVQLVESGGGLVQPGGSLRLSCAASGYTFTNYGMNWVRQAPGKGLEWVGWINTYTGEPTYAADFKRRFTFSLDTSKSTAYLQMNSLRAEDTAVYYCAKYPFYYGSSHWYFDVWGQGTLVTVSS VL: DIQMTQSPSSLSASVGDRVTITCSASQDISNYLNWYQQKPGKAPKVLIYFTSSLHSGVPSRFSGSGSGTDFTLTISSLQPEDFATYYCQQYSTVPWTFGQGTKVEIK .
Completion: 2.5

Prompt: Give the measured affinity improvement of 92 (antibody, human IgG1, V domains shown) VH: EVQLVESGGGLVQPGGSLRLSCAASGYTFTNYGMNWVRQAPGKGLEWVGWINTYTGEPTYAADFKRRFTFSLDTSKSTAYLQMNSLRAEDTAVYYCAKYPPYYGSSHWYFDVWGQGTLVTVSS VL: DIQMTQSPSSLSASVGDRVTITCSASQDISNYLNWYQQKPGKAPKVLIYFTSSLHSGVPSRFSGSGSGTDFTLTISSLQPEDFATYYCQQYSTVPWTFGQGTKVEIKR .
Completion: 0.8

Prompt: Give the measured affinity improvement of H97 A (anti-VEGF IgG) (antibody, V domains shown, copies: 2 + 2) VH: EVQLVESGGGLVQPGGSLRLSCAASGYTFTNYGMNWVRQAPGKGLEWVGWINTYTGEPTYAADFKRRFTFSLDTSKSTAYLQMNSLRAEDTAVYYCAKYPAYYGSSHWYFDVWGQGTLVTVSS VL: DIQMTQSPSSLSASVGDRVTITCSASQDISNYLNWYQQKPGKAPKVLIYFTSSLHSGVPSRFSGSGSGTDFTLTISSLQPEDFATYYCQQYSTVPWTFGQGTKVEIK .
Completion: 0.2
